Give measured self-cleavage for each item. Keep answers brief.
B1: LINE1-full (parent)
chain: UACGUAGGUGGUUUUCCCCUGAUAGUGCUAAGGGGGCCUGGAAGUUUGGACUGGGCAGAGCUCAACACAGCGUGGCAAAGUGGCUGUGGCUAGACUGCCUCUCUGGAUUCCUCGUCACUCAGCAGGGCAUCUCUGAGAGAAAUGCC

variants of: B1; test: self-cleavage, relative activity (ratio to wild type); higher = more cleavage; in vitro, sequencing; the parent is a self-cleaving ribozyme

The following variants have reported results that may help.
UACGUAGGUGGUUUUCCCCUGUUAGUGCUAAGGGGGCCUGGAAGUUUGGACUGGGCAGAGCUCAACACAGCGUGGCAAAGUGGCUGUGGCUAGACUGCCUCUCUGGAUUCCUCAUCACUCAGCAGGGCAUCUCUGAGAGAAAUGCC	1.44
UACGUAGGAGGUUUUCCCCUGAUAGUGCUAAGGGGGCCUGGAAGUUUGGACUGGGCAGAGCUCAACACAGCGUGGCAAAGUGGCUGUGGCUAGACUGCCUCUCUGGAUACCUCGUCACUCAGCAGGGCAUCUCUGAGAGAAAUGCC	0.14
UACGUAGGUGGUUUCCCCCUGAUAGUGCUAAGGGGGCCUGGAAGUUUGGACUGGGCAGAGCUCAACACAGCGUGGCAAAGUGGCUGUGGCUAGACUGCCUGUCUGGAUUCCUCGUCACUCAGCAGGGCAUCUCUGAGAGAAAUGCC	1.31
UACGUAGGUGGUUUUCCCCUGAUAGUGCUAAGGGGGCCUGGAAGUUUGGACUGGGCAGAGCUCAACACAGCGUGGCAAAGUGGCUGUGGCUAGACGGCCUCUCUGGAUCCCUCGUCACUCAGCAGGGCAUCUCUGAGAGAAAUGCC	0.17
UACGUAGGUGGUUUUCCCCUGAUAGUGCUAAGGGGGCCUGGAAGUUUGGACUGAGCAGAGCUCAACACAGCAUGGCAAAGUGGCUGUGGCUAGACUGCCUCUCUGGAUUCCUCGUCACUCAGCAGGGCAUCUCUGAGAGAAAUGCC	0.45
UACGUAGGUGGUUUUCCCCUAAUAGUGCUAAGGGGGCCUGGAAGUUUGGACUGGGCAGGGCUCAACACAGCGUGGCAAAGUGGCUGUGGCUAGACUGCCUCUCUGGAUUCCUCGUCACUCAGCAGGGCAUCUCUGAGAGAAAUGCC	0.04
UACGUAGGUGGUUUUCCCCUGAUAGUGCUAAGGGGGCCUGGAAGUUUGGGCUGGGCAGAGCUCAACACAGCGUGGCAAAGUGGCUGUGGCUAGACUGCCUCUCUGGAUUCCUCGUCACUCAGCGGGGCAUCUCUGAGAGAAAUGCC	0.51
UACGUAGGUGGUUUUCCCCUGAUAGUGCUAAGGGGGCCUAGAAGUUUGGACUGGGCAGAGCUCAACACAGCGUGGCAAAGUGGCUGUGGCUAGACUGCCUCUCUGGAUUCCUCGUCACUCAGCAGGGCAUCUCUGGGAGAAAUGCC	0.85
UACGUAGGUGGUUUUCCCCUGAUAGUGCUAAGGGGGCCUGGAAGUUUGGACUGGGCAGAGCUCAACACAGCGUGGCAAAGUGGCUGUGGCUAGACUGCCUCUCUGGAUUCCUAGUCACUCAGCAGGGCAUCUCUGAGAGAAGUGCC	0.47
UACGUAGGUGGUUAUCCCCUGAUAGUGCUAAGGGGGCCUGGAAGUUUAGACUGGGCAGAGCUCAACACAGCGUGGCAAAGUGGCUGUGGCUAGACUGCCUCUCUGGAUUCCUCGUCACUCAGCAGGGCAUCUCUGAGAGAAAUGCC	1.09

Provide each entry's self-cleavage from the list below.
1. UACGUAGGUGGUUUUCCCCUGAUAGUGCUAAGGGGGCCUGGAAGUUUGGACUGGGCAGAGCUCAACUCAGCGUGGCAAAGUGGCUGUGGCUAGACCGCCUCUCUGGAUUCCUCGUCACUCAGCAGGGCAUCUCUGAGAGAAAUGCC
2. UACGUAGGUGGUUUUCCCCUGAUAGUGCUAAGGGGGCCAGGAAGUUUGGACUGGGCAGAGCUCAACACAGCAUGGCAAAGUGGCUGUGGCUAGACUGCCUCUCUGGAUUCCUCGUCACUCAGCAGGGCAUCUCUGAGAGAAAUGCC
3. UACGUAGGUGGUUUUCCCCUGAUAGUGCUAAGGGGGCUUGGAAGUUUGGACUGGGCAGAGCUCAACACGGCGUGGCAAAGUGGCUGUGGCUAGACUGCCUCUCUGGAUUCCUCGUCACUCAGCAGGGCAUCUCUGAGAGAAAUGCC
4. CACGUAAGUGGUUUUCCCCUGAUAGUGCUAAGGGGGCCUGGAAGUUUGGACUGGGCAGAGCUCAACACAGCGUGGCAAAGUGGCUGUGGCUAGACUGCCUCUCUGGAUUCCUCGUCACUCAGCAGGGCAUCUCUGAGAGAAAUGCC
5. UACGUAGGUGGUUUUCCCCUGAUAGUGCUAAGGGGGCCUGGAAGUUUGGACUGGGCAGAGCUCAACACAGCGUGGCAAAGUGGCCGUGGCUAGACUGCCUCUCUGGAUUCCUCGUCACUCAGCAGGGCAUCUCUGAGAGAAAUGCC

Key:
[0.07, 1.81, 0.49, 0.7, 0.18]
